Biological target: T1, ProQ (minimal ProQ, FinO domain with short N- and C-terminal extensions) (Neisseria meningitidis, UniProt Q9JY98 1-141)
T1 sequence: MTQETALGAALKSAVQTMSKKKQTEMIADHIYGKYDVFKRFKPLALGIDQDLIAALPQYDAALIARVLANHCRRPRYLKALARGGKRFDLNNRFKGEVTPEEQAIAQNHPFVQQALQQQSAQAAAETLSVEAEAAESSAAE
Experiment: EMSA; max bound 89%; 25 mM Tris pH 7.5, 150 mM NaCl, 5% glycerol, 1 mM MgCl2, 1 nM 32P-RNA, ProQ up to 50 nM, 30 min at room temperature; 6% native gel at 4 C
Conditions: protein: recombinant; tags: N-terminal His6-TEV, cleaved; one extra N-terminal Ser remains; label: 5'-32P; terminator hairpin, 8 nt 3' tail
value_kind: Kd

Item GGGAUUUCAGUUUGAAAGCAAAGCCUCCGACUGUUCGGAGGCUUUUUUAU (structured_RNA) [rpmG-U6AU] has what recorded Kd?
0.2 nM
